For each of the compounds below, state its IC50.
# target_entity: human recombinant FGFR2 (Homo sapiens)
# Sequence (P21802 22-821): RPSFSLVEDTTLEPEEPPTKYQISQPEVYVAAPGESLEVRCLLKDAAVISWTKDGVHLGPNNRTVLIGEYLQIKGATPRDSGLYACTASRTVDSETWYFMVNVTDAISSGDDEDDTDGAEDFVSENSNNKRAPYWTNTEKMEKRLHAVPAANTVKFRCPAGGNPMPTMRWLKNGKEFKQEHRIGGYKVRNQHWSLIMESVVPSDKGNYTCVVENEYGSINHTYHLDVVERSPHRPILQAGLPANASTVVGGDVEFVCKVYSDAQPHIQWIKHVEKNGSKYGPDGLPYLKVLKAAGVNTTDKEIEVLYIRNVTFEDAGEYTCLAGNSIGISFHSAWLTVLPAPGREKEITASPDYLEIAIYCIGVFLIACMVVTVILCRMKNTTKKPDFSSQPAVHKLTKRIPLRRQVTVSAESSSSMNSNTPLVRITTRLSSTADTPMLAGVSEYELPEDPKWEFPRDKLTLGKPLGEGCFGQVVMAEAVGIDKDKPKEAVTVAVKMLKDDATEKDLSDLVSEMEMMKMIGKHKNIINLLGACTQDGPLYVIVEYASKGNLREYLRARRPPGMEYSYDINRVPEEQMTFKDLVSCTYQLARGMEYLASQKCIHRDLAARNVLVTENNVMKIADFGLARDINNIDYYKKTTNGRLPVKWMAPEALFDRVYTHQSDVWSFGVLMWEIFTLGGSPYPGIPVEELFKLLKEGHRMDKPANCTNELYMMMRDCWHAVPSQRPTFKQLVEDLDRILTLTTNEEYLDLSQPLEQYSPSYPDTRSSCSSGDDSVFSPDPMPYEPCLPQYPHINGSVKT
# assay_remarks: FGFR family enzymatic activity assay (Caliper-based kinase assay), FGFR2
# applied_conditions: FGFR2 0.1 nM, ATP 75 μM, peptide substrate 1 μM, room temperature 3 h
Counter-ions that a name gives are not always drawn.
Quick note: number first, unit second.

Here's what some known entries look like.
- compound: "C=CC(=O)Nc1ccc(CCn2c(=O)c(-c3cc(OC)cc(OC)c3Cl)cc3cnc(NCCN4CCN(C(C)=O)CC4)nc32)cc1"
  IC50: "2 nM"
- compound: "C=CC(=O)Nc1ccc(CCn2c(=O)c(-c3c(Cl)c(OC)cc(OC)c3Cl)cc3cnc(NCCN4CCOCC4)nc32)cc1"
  IC50: "2.5 nM"
- compound: "C=CC(=O)Nc1ccc(CCn2c(=O)c(-c3c(Cl)c(OC)cc(OC)c3Cl)cc3cnc(NC(CO)CO)nc32)cc1"
  IC50: "1.6 nM"
- compound: "C=CC(=O)Nc1ccc(CCn2c(=O)c(-c3c(Cl)c(OC)cc(OC)c3Cl)cc3cnc(NCC(O)CO)nc32)cc1 (stereo not shown)"
  IC50: "0.9 nM"

Consider the following items and state reported IC50 for each.
1. C=CC(=O)Nc1ccc(CCn2c(=O)c(-c3cc(OC)cc(OC)c3Cl)cc3cnc(NCCO)nc32)cc1
2. C=CC(=O)Nc1ccc(CCn2c(=O)c(-c3cc(OC)cc(OC)c3Cl)cc3cnc(NC)nc32)cc1
3. C=CC(=O)Nc1ccc(CCn2c(=O)c(-c3cc(OC)cc(OC)c3Cl)cc3cnc(NC(C)(C)CO)nc32)cc1
4. C=CC(=O)Nc1ccc(CCn2c(=O)c(-c3c(Cl)c(OC)cc(OC)c3Cl)cc3cnc(NCC4CCN(C)CC4)nc32)cc1
5. C=CC(=O)Nc1ccc(CCn2c(=O)c(-c3c(Cl)c(OC)cc(OC)c3Cl)cc3cnc(NCC(C)(C)O)nc32)cc1
6. C=CC(=O)Nc1ccc(CCn2c(=O)c(-c3c(Cl)c(OC)cc(OC)c3Cl)cc3cnc(NCCO)nc32)cc1
7. C=CC(=O)Nc1ccc(CCn2c(=O)c(-c3cc(OC)cc(OC)c3Cl)cc3cnc(NCC4CCN(C)CC4)nc32)cc1
8. C=CC(=O)Nc1ccc(CCn2c(=O)c(-c3c(Cl)c(OC)cc(OC)c3Cl)cc3cnc(NCCCCN(CC)CC)nc32)cc1 [Example 5, hydrochloride]

-- reply
["2 nM", "1.4 nM", "3.4 nM", "0.6 nM", "2.2 nM", "1.7 nM", "1.3 nM", "1.5 nM"]

Consider the following items and state reported IC50 for each.
1. C=CC(=O)N1CCCC(CCn2c(=O)c(-c3ccccc3Cl)cc3cnc(NCCCCN(CC)CC)nc32)C1 (stereo not shown)
2. C=CC(=O)Nc1ccc(CCn2c(=O)c(-c3c(Cl)c(OC)cc(OC)c3Cl)cc3cnc(NC4CCN(C)CC4)nc32)cc1
3. C=CC(=O)Nc1ccc(CCn2c(=O)c(-c3cc(OC)cc(OC)c3Cl)cc3cnc(NC(CO)CO)nc32)cc1

-- reply
["701 nM", "2 nM", "1.5 nM"]

-- ask IC50 lookup needed for C=CC(=O)Nc1ccc(CCn2c(=O)c(-c3cc(OC)cc(OC)c3F)cc3cnc(NCCN4CCOCC4)nc32)cc1 , thanks.
-- reply 2.6 nM

Data provenance is patent US9630963B2.
